- Test system: PA-1 (Ovarian Carcinoma);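 note: after 72 h of two-drug dosing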
- Experimental protocol: Bliss excess, mean over the matrix (fraction); higher = more synergy
Hi there, I'd appreciate the recorded Bliss excess for every entry that follows.

INSERT INTO assay_data (compound, recorded_measurement) VALUES
  ('Cn1cnc2c(F)c(Nc3ccc(Br)cc3Cl)c(C(=O)NOCCO)cc21 [Selumetinib] + C[C@@H]1COCCN1C2=NC(=NC(=C2)C3(CC3)[S@](=N)(=O)C)C4=C5C=CNC5=NC=C4 [AZD6738] (first compound max 10 µM, 7x7, partner max 10 µM)', 0.0267);

Moving on to another compound below.
Determine from records and report Bliss excess for CCc1c2c(nc3ccc(O)cc13)-c1cc3c(c(=O)n1C2)COC(=O)[C@]3(O)CC [SN-38] + O=C(c1cc(Cc2n[nH]c(=O)c3ccccc23)ccc1F)N1CCN(C(=O)C2CC2)CC1 [Olaparib] (first compound max 0.3 µM, 7x7, partner max 10 µM)
0.0044
